# Tested on: MCF7
# Protocol details: cells
# Study conditions: Homo sapiens, MCF7, 72 h
In plain terms, low IC50, meaning strictly below 600 nM, gives satisfied, and everything else gives not satisfied.

# example entries with known answers
CCCNc1ncc2c(n1)CCN(C(=O)c1cc(C(C)C)c(O)cc1O)C2 = not satisfied
CCNc1ncc2c(n1)CCN(C(=O)c1cc(C(C)C)c(O)cc1O)C2 = not satisfied
CC(C)COc1ncc2c(n1)CCN(C(=O)c1cc(C(C)C)c(O)cc1O)C2 = not satisfied

Incoming: Quick check: does `CC(C)c1cc(C(=O)N2CCc3nc(N4CCN(C)CC4)ncc3C2)c(O)cc1O` have IC50 under 600 nM?
Outgoing: not satisfied

Incoming: Does `CNc1nc(OCCOC)nc2c1CN(C(=O)c1cc(C(C)C)c(O)cc1O)CC2` have IC50 strictly under 600 nM?
Outgoing: satisfied

Incoming: Determine whether this compound shows IC50 lower than 600 nM (ties excluded): `COCCOc1nc2c(c(NC(C)C)n1)CN(C(=O)c1cc(C(C)C)c(O)cc1O)CC2`
Outgoing: satisfied

Incoming: # check: IC50 < 600 nM for `CC(C)Nc1ncc2c(n1)CCN(C(=O)c1cc(C(C)C)c(O)cc1O)C2`
Outgoing: not satisfied

====

# Test system: MCF7
# Protocol details: cells
# Study conditions: Homo sapiens, MCF7, 72 h
Endpoint: pIC50
Reminder that pIC50 is minus the log10 of a molar concentration.

Some solved cases for reference:
CC(C)c1cc(C(=O)N2CCc3nc(OCCN4CCCC4)ncc3C2)c(O)cc1O = 5.71
Cc1ncc2c(n1)CN(C(=O)c1cc(Br)c(O)cc1O)C2 = 5.43
CCCOc1ncc2c(n1)CCN(C(=O)c1cc(C(C)C)c(O)cc1O)C2 = 5.87
COCCOc1nc2c(c(OC)n1)CN(C(=O)c1cc(C(C)C)c(O)cc1O)CC2 = 6.85

Incoming: Request: pIC50, test system MCF7, entry `CC(C)c1cc(C(=O)N2CCc3nc(OCCCN(C)C)ncc3C2)c(O)cc1O`
Outgoing: 5.63

Incoming: Look up pIC50 with MCF7 for this molecule: `CC(C)c1cc(C(=O)N2CCc3nc(OC4CCOCC4)ncc3C2)c(O)cc1O`
Outgoing: 6.09

Incoming: # get_value(readout= pIC50, system= MCF7) for `CC(C)c1cc(C(=O)N2CCc3nc(OCCN4CCCCC4)ncc3C2)c(O)cc1O`
Outgoing: 5.63

Incoming: Checklist item: pIC50 tested on MCF7, entry `COCCOc1nc2c(c(OC(C)C)n1)CN(C(=O)c1cc(C(C)C)c(O)cc1O)CC2` , value?
Outgoing: 6.60

Incoming: Recall the recorded pIC50 for `CNc1ncc2c(n1)CCN(C(=O)c1cc(C(C)C)c(O)cc1O)C2` with MCF7 and state it.
Outgoing: 5.90

Incoming: Can you look up pIC50 on MCF7 for `CCN(CC)c1nc(OCCOC)nc2c1CN(C(=O)c1cc(C(C)C)c(O)cc1O)CC2` ?
Outgoing: 5.54

====

# Test system: HCT-116
# Protocol details: cells
# Study conditions: Homo sapiens, HCT-116, 72 h
# Description: Antiproliferative activity against human HCT-116 cells assessed as reduction in cell viability incubated for 72 hrs by MTT assay
pIC50: −log10 of the molar value.
Tag: TRUE if measured pIC50 is not below 6, FALSE if it is.

Record excerpt, results attached:
CC(C)Nc1ncc2c(n1)CCN(C(=O)c1cc(C(C)C)c(O)cc1O)C2 = FALSE
CCCNc1ncc2c(n1)CCN(C(=O)c1cc(C(C)C)c(O)cc1O)C2 = FALSE
CCN(CC)c1ncc2c(n1)CCN(C(=O)c1cc(C(C)C)c(O)cc1O)C2 = FALSE

Incoming: Could you verify whether the entry `CCNc1ncc2c(n1)CCN(C(=O)c1cc(C(C)C)c(O)cc1O)C2` shows pIC50 of no less than 6?
Outgoing: FALSE

Incoming: Could you please find out whether `COCCOc1ncc2c(n1)CCN(C(=O)c1cc(C(C)C)c(O)cc1O)C2` has pIC50 that meets 6 or exceeds it?
Outgoing: TRUE

Incoming: Reported pIC50 at or above 6? `CC(=O)N1CCN(c2ncc3c(n2)CCN(C(=O)c2cc(C(C)C)c(O)cc2O)C3)CC1`
Outgoing: FALSE

Incoming: Reported pIC50 at or above 6? `Cc1ncc2c(n1)CN(C(=O)c1cc(Br)c(O)cc1O)C2`
Outgoing: FALSE

Incoming: Kindly determine if pIC50 recorded for `CNc1nc(OCCOC)nc2c1CN(C(=O)c1cc(C(C)C)c(O)cc1O)CC2` is above or exactly 6.
Outgoing: TRUE

Incoming: Is it the case that `CC(C)c1cc(C(=O)N2CCc3nc(OC4CCCC4)ncc3C2)c(O)cc1O` has pIC50 reaching or exceeding 6?
Outgoing: FALSE

Incoming: Please indicate if the recorded pIC50 for `COCCOc1nc2c(c(N(C)C)n1)CN(C(=O)c1cc(C(C)C)c(O)cc1O)CC2` meets or exceeds 6.
Outgoing: TRUE
